# Method summary: Ulcerogenic activity in rat assessed as average severity of ulcers formed at 50 mg/kg, sc qd for 4 days post 18 hrs fasting measured after 4 days
# Format: toxicity, organism-based
# Reported conditions: in vivo, 96 h
Measurement type: Activity

>>> print(df.to_string())
                              sample_smiles  result
0  Nc1nc(-c2ccccc2)cc(-c2cn(-c3ccccc3)nc2-c2ccc(OCc3ccccc3)cc2)n1     0.6
1  CC(=O)n1nc(-c2ccccc2)cc1-c1cn(-c2ccccc2)nc1-c1ccc(OCc2ccccc2)cc1     1.2
2  O=C(/C=C/c1cn(-c2ccccc2)nc1-c1ccc(OCc2ccccc2)cc1)c1ccc(Cl)cc1     0.2
3  O=C(/C=C/c1cn(-c2ccccc2)nc1-c1ccc(OCc2ccccc2)cc1)c1ccccc1     0.4

Now take the following compound into account.
Record request: Activity value, item Clc1ccc(-c2cc(-c3cn(-c4ccccc4)nc3-c3ccc(OCc4ccccc4)cc3)on2)cc1
1.2

###

# Method summary: Hepatotoxicity in rat assessed as effect on bile ducts at 50 mg/kg by hematoxylin and eosin staining based assay
# Assay type: toxicity, organism-based
# Reported conditions: in vivo
Measurement type: Activity

// worked examples, Activity included
                                   compound  measurement_type     result
0  S=c1nc(-c2ccc(Cl)cc2)cc(-c2cn(-c3ccccc3)nc2-c2ccc(OCc3ccccc3)cc2)[nH]1          Activity      Toxic
1  Nc1nc(-c2ccccc2)cc(-c2cn(-c3ccccc3)nc2-c2ccc(OCc3ccccc3)cc2)n1          Activity      Toxic
2  O=C(/C=C/c1cn(-c2ccccc2)nc1-c1ccc(OCc2ccccc2)cc1)c1ccc(Cl)cc1          Activity  Non-Toxic
3  Clc1ccc(-c2cc(-c3cn(-c4ccccc4)nc3-c3ccc(OCc4ccccc4)cc3)on2)cc1          Activity      Toxic
4  CC(=O)n1nc(-c2ccccc2)cc1-c1cn(-c2ccccc2)nc1-c1ccc(OCc2ccccc2)cc1          Activity      Toxic

Which Activity value is on record for N#CC1=C(N)OC(c2ccccc2)=CC1c1cn(-c2ccccc2)nc1-c1ccc(OCc2ccccc2)cc1 (centres undefined) ?
Toxic

Give the measured Activity of COc1ccc2c(c1)c(CC(=O)O)c(C)n2C(=O)c1ccc(Cl)cc1 [INDOMETHACIN] .
Toxic

Item under review: Cc1ccc(-c2cc(C(F)(F)F)nn2-c2ccc(S(N)(=O)=O)cc2)cc1 [CELECOXIB] . Reported Activity?
Toxic

If you can, please state the reported Activity value of O=C(/C=C/c1cn(-c2ccccc2)nc1-c1ccc(OCc2ccccc2)cc1)c1ccccc1 .
Non-Toxic

###

# Method summary: Ulcerogenic activity in rat assessed as average number of ulcers formed at 50 mg/kg, sc qd for 4 days post 18 hrs fasting measured after 4 days
# Assay type: toxicity, organism-based
# Reported conditions: in vivo, 96 h
Measurement type: Activity
Could you respond with only the numeric value?

Would you please look over these solved cases?
                                   compound  measurement_type  number
0  COc1ccc2c(c1)c(CC(=O)O)c(C)n2C(=O)c1ccc(Cl)cc1          Activity       5
1  Cc1ccc(-c2cc(C(F)(F)F)nn2-c2ccc(S(N)(=O)=O)cc2)cc1          Activity     0.6
2  Nc1nc(-c2ccccc2)cc(-c2cn(-c3ccccc3)nc2-c2ccc(OCc3ccccc3)cc2)n1          Activity     0.6
3  Clc1ccc(-c2cc(-c3cn(-c4ccccc4)nc3-c3ccc(OCc4ccccc4)cc3)on2)cc1          Activity     1.2
4  O=C(/C=C/c1cn(-c2ccccc2)nc1-c1ccc(OCc2ccccc2)cc1)c1ccc(Cl)cc1          Activity     0.2
5  S=c1nc(-c2ccc(Cl)cc2)cc(-c2cn(-c3ccccc3)nc2-c2ccc(OCc3ccccc3)cc2)[nH]1          Activity     1.2

Given the entry O=C(/C=C/c1cn(-c2ccccc2)nc1-c1ccc(OCc2ccccc2)cc1)c1ccccc1 , report its measured Activity.
0.4

Name the recorded Activity for CC(=O)n1nc(-c2ccccc2)cc1-c1cn(-c2ccccc2)nc1-c1ccc(OCc2ccccc2)cc1 .
0.8

Given the compound N#CC1=C(N)OC(c2ccccc2)=CC1c1cn(-c2ccccc2)nc1-c1ccc(OCc2ccccc2)cc1 (centres undefined) , what is its reported Activity?
0.8

###

# Test system: Rattus norvegicus
# Method summary: Anti-inflammatory activity in albino rat model of carrageenan-induced paw edema assessed as inhibition of carrageenan-induced paw edema at 100 mg/kg, po administered as single dose prior to carrageenan challenge measured after 3 hrs relative to control
# Type: functional
Measurement type: inhibition in vivo at 100 mg/kg (%)
Reply numerically in %, unit not repeated.

>>> print(df.to_string())
                                   molecule                 measurement_type  unit_abbrev  number
0  Cc1ccc(-c2cc(C(F)(F)F)nn2-c2ccc(S(N)(=O)=O)cc2)cc1  inhibition in vivo at 100 mg/kg            %    58.5
1  c1ccc(COc2ccc(-c3nn(-c4ccccc4)cc3-c3cc(-c4ccccc4)no3)cc2)cc1  inhibition in vivo at 100 mg/kg            %    42.5

I would be grateful if you could share the reported inhibition in vivo at 100 mg/kg for Clc1ccc(-c2cc(-c3cn(-c4ccccc4)nc3-c3ccc(OCc4ccccc4)cc3)on2)cc1 .
70.9

Dear colleague, I am looking for the recorded inhibition in vivo at 100 mg/kg of the following molecule: N#CC1=C(N)OC(c2ccccc2)=CC1c1cn(-c2ccccc2)nc1-c1ccc(OCc2ccccc2)cc1 (stereo unspecified)
59.5

Request the reported inhibition in vivo at 100 mg/kg associated with CC(=O)n1nc(-c2ccccc2)cc1-c1cn(-c2ccccc2)nc1-c1ccc(OCc2ccccc2)cc1
64.6

###

# Measured on: Prostaglandin G/H synthase 1 (Homo sapiens, UniProt P23219)
# Sequence (P23219 whole entry): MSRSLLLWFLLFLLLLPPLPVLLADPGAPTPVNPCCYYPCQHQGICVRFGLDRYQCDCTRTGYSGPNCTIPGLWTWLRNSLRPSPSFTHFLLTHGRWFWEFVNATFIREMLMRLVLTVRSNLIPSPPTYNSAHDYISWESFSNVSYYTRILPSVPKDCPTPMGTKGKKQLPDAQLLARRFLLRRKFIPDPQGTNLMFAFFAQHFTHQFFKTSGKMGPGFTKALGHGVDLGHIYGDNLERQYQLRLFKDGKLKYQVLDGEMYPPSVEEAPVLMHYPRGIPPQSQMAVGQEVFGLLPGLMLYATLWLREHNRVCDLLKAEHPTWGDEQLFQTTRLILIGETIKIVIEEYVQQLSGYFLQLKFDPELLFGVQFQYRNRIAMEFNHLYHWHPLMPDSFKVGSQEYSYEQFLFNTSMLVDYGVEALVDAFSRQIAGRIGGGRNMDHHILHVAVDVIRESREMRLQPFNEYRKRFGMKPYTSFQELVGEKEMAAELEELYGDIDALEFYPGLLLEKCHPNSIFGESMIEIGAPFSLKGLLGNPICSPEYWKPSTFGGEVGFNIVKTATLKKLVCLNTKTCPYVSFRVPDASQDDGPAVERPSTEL
# Method summary: Inhibition of human recombinant COX1 assessed as decrease in prostaglandin production using arachidonic acid as substrate pretreated for 15 mins followed by substrate addition and measured after 2 mins by enzyme immunoassay
Measurement type: log10 of IC50 (log10 of the value in µM)
Heads up: the numbers are on a log10 scale; they represent IC50 in µM.

                                   molecule  number
0  O=C(/C=C/c1cn(-c2ccccc2)nc1-c1ccc(OCc2ccccc2)cc1)c1ccc(Cl)cc1    0.75
1  CC(=O)n1nc(-c2ccc(Cl)cc2)cc1-c1cn(-c2ccccc2)nc1-c1ccc(OCc2ccccc2)cc1    0.43
2  CC(=O)n1nc(-c2ccccc2)cc1-c1cn(-c2ccccc2)nc1-c1ccc(OCc2ccccc2)cc1    1.11
3  S=c1nc(-c2ccccc2)cc(-c2cn(-c3ccccc3)nc2-c2ccc(OCc3ccccc3)cc2)[nH]1   -0.51
4  Clc1ccc(-c2cc(-c3cn(-c4ccccc4)nc3-c3ccc(OCc4ccccc4)cc3)on2)cc1    0.46

Then this molecule:
Recorded log10 of IC50 for N#CC1=C(N)OC(c2ccccc2)=CC1c1cn(-c2ccccc2)nc1-c1ccc(OCc2ccccc2)cc1 (stereo unspecified) , please?
0.60

###

Documented Activity across a set of compounds
# Method summary: Ulcerogenic activity in rat assessed as average severity of ulcers formed at 50 mg/kg, sc qd for 4 days post 18 hrs fasting measured after 4 days
# Assay type: toxicity, organism-based
# Reported conditions: in vivo, 96 h
Reply: number alone, nothing else.

In [3]: df
Out[3]:
                                   compound  number
0  Cc1ccc(-c2cc(C(F)(F)F)nn2-c2ccc(S(N)(=O)=O)cc2)cc1 [CELECOXIB]     0.6

What does the record list as Activity for N#CC1=C(N)OC(c2ccccc2)=CC1c1cn(-c2ccccc2)nc1-c1ccc(OCc2ccccc2)cc1 (centres undefined) ?
0.4

Which Activity is reported for this compound? COc1ccc2c(c1)c(CC(=O)O)c(C)n2C(=O)c1ccc(Cl)cc1 [INDOMETHACIN]
2.6

What value of Activity has been recorded for this entry: S=c1nc(-c2ccc(Cl)cc2)cc(-c2cn(-c3ccccc3)nc2-c2ccc(OCc3ccccc3)cc2)[nH]1
1.2

###

# Method summary: Ulcerogenic activity in rat assessed as effect on gastric mucosa at 50 mg/kg by hematoxylin and eosin staining based assay
# Assay type: toxicity, organism-based
# Reported conditions: in vivo
Measurement type: Activity

>>> print(df.to_string())
                                   compound  measurement_type  result
0  Nc1nc(-c2ccccc2)cc(-c2cn(-c3ccccc3)nc2-c2ccc(OCc3ccccc3)cc2)n1          Activity   Toxic
1  N#CC1=C(N)OC(c2ccccc2)=CC1c1cn(-c2ccccc2)nc1-c1ccc(OCc2ccccc2)cc1 (centres undefined)          Activity   Toxic
2  Cc1ccc(-c2cc(C(F)(F)F)nn2-c2ccc(S(N)(=O)=O)cc2)cc1          Activity   Toxic
